Molecular target: rMnHK (recombinant M. nipponense hexokinase) (Macrobrachium nipponense)
Construct: pET-28a, His tag, E. coli BL21 (DE3); about 70 kDa on SDS-PAGE
Assay: enzyme inhibition, Lineweaver-Burk plot
Type: biochemical
Conditions: read-out: Inhibitor Studies (Ki) (mM) / PPi
READOUT: Ki (mM)
One number for each entry, in mM.

Request: Ki, test system rMnHK (recombinant M. nipponense hexokinase) (Macrobrachium nipponense), entry O=P(O)(O)OP(=O)(O)O [PPi]
0.011

---

Biological target: rMnHK (recombinant M. nipponense hexokinase) (Macrobrachium nipponense, UniProt A0A220NLA7)
Construct: pET-28a, His tag, E. coli BL21 (DE3); about 70 kDa on SDS-PAGE
Sequence (A0A220NLA7 1-449): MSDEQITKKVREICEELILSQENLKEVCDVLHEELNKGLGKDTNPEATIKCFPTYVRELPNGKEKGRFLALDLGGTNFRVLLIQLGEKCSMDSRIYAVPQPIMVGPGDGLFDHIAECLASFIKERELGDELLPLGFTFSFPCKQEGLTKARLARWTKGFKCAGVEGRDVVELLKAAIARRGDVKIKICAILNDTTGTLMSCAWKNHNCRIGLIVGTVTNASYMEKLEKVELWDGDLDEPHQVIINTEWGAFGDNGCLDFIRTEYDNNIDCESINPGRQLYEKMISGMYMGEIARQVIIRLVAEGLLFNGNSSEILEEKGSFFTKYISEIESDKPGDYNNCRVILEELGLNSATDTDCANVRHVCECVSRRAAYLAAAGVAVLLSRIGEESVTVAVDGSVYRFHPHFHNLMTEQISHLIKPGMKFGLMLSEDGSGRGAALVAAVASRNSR
Test: enzyme inhibition, Lineweaver-Burk plot
Assay type: biochemical
Conditions: read-out: Inhibitor Studies (Ki) (mM) / ADP
READOUT: Ki (mM)
One number for each entry, in mM.

Name the recorded Ki for Nc1ncnc2c1ncn2[C@@H]1O[C@H](COP(=O)(O)OP(=O)(O)O)[C@@H](O)[C@H]1O [ADP] .
0.76

Source listed as paper PMC5486078.
